Origin of values: patent US8445492B2

- Test system: UO-31
- protocolText: NCI DTP in-vitro dose response, Renal Cancer
- Format: cell-based
- settings: UO-31; read-out: LC50 (the source's name)
measure: CC50

Enquiry: Provide measured CC50 value, entry: `O=C1c2ccccc2C(=O)c2c1ccc1nccnc21`
Return: > 100 µM

* * *

- System: different cancer cell lines
- protocolText: in vitro test at 1.0×10^−5 M, summary over the cell lines
- Format: cell-based
- Parameters: unit not given here
- settings: 1.0×10^−5 molal concentration (M)
Provide the recorded Mean for the entries that follow.
Give bare numbers.

See these solved cases before continuing.
compound: CCc1nc2ccc3c(c2[nH]1)C(=O)c1ccccc1C3=O
experimentalValue: 58.42
--
compound: O=C1c2ccccc2C(=O)c2c1ccc1[nH]c(=O)c(=O)[nH]c21
experimentalValue: 100.83
--
compound: CC1(C)Nc2ccc3c(c2N1)C(=O)c1ccccc1C3=O
experimentalValue: 80.41
--
compound: O=C1c2ccccc2C(=O)c2c1ccc1nccnc21 [No. 25, Naphthol-[2,3-f]quinoxaline-7,12-dione]
experimentalValue: 69.36

Shift focus to the following entry.
Enquiry: Provide measured Mean value, entry: `O=C1c2ccccc2C(=O)c2c1ccc1nsnc21`
Return: 2.68
